The values you see were collected from patent US20170152313A1.

- measured on: T1, APP-Avi-soluble cynomolgus monkey LOX-1 (61-273) (cynomolgus monkey, biotinylated at the Avi tag when immobilised in the SET assay)
- T1 construct: Expressed and purified in the same way as the human protein; also called cynomolgus monkey soluble LOX-1; Cynomolgus Monkey Soluble APP-Avi-LOX-1
- experimental details: SPR Biacore T200, antibody captured by anti-human IgG, cynomolgus soluble LOX-1 as analyte, 1:1 model
Entries and their koff
measured attribute: koff (s⁻¹)

binder="FF1 (antibody, human IgG1, kappa, L234A L235A, V domains shown, Humaneered variant of E2E10, tested as full human IgG (captured or detected with anti-human IgG); Biotinylated for the neutrophil assay; also called LLG783; LLG783 (FF1)) VH: QVQLVQSGAEVKKPGASVKVSCKASGYTFTDYEVHWVRQAPGQGLEWMGAIHPGSGGAAYVQKFQGRVTMTRDTSTSTAYMELSSLRSDDTAVYYCARWLPMDYWGQGTLVTVSS VL: DIQMTQSPSSVSASVGDRVTITCRASQGINNWLVWYQQKPGKAPKLLIYAASSLQSGVPSRFSGSGSGADYTLTISSLQPEDFATYYCQQYLITPYTFGQGTKLEIKR" unit_symbol=s⁻¹ data_value=1.3e-05
binder="FF4 (antibody, human IgG1, kappa, L234A L235A, V domains shown, Humaneered variant of E2E10, tested as full human IgG; the text and claims pair heavy chain 56 with light chain 66; Biotinylated for the neutrophil assay; also called LLG786; LLG786 (FF4)) VH: QVQLVQSGAEVKKPGASVKVSCKASGYTFTDYEVHWVRQAPGQGLEWMGAIHPGSGGAAYVQKFQGRVTMTRDTSISTAYMELSRLRSDDTAVYYCARWLPMDYWGQGTLVTVSS VL: DIQMTQSPSSVSASVGDRVTITCRASQGITNWLAWYQQKPGKAPKLLIYAASILESGVPSRFSGSGSGTDYTLTISSLQPEDIATYYCQQYLITPYTFGQGTKLEIKR" unit_symbol=s⁻¹ data_value=2.6e-06
binder="FF5 (antibody, human IgG1, kappa, L234A L235A, V domains shown, Humaneered variant of E2E10, tested as full human IgG; Biotinylated for the neutrophil assay; also called LLG787; LLG787 (FF5)) VH: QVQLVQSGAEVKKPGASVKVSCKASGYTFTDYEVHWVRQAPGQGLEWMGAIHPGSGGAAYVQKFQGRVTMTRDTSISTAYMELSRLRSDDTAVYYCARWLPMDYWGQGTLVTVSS VL: DIQMTQSPSSVSASVGDRVTITCRASQGINNWLVWYQQKPGKAPKLLLYAASRLESGVPSRFSGSGSGTDYTLTISSLQPEDIATYYCQQYLITPYTFGQGTKLEIKR" unit_symbol=s⁻¹ data_value=4.8e-05
binder="FF6 (antibody, human IgG1, kappa, L234A L235A, V domains shown, Humaneered variant of E2E10, tested as full human IgG; Biotinylated for the neutrophil assay; also called LLG788; LLG788 (FF6)) VH: QVQLVQSGAEVKKPGASVKVSCKASGYTFTDYEVHWVRQAPGQGLEWMGAIHPGSGGAAYVQKFQGRVTMTRDTSISTAYMELSRLRSDDTAVYYCARWLPIDYWGQGTLVTVSS VL: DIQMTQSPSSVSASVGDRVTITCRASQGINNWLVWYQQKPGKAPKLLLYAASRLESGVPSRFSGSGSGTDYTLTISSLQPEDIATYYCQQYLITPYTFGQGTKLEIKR" unit_symbol=s⁻¹ data_value=5e-05
